Target: T1, cynomolgus BTLA expressed on HEK-293 cells (cynomolgus, UniProt A0A2K5W7M7 31-289)
T1 construct: whole, on cells; also called Cyno BTLA
T1 sequence (A0A2K5W7M7 entry or part of it): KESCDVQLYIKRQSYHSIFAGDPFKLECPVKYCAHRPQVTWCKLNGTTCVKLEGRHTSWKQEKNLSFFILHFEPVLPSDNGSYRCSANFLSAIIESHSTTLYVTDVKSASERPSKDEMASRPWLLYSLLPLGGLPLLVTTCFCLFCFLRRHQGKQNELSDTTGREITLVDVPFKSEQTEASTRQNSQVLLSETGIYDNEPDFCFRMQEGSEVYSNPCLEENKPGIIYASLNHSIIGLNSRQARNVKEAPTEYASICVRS
Assay: flow cytometry on HEK 293 cells expressing BTLA (MFI)

Binder: anti-BTLA antibody 12-I8A (antibody, V domains shown, also called 12-IBA) VH: QVQLVESGGGVVQPGRSLRLSCAASGFTFSNYGMHWVRQAPGKGLEWVAVIWYNGSNKYYADSVKGRFTISRDNSKNTLYLQMNSLRAEDTAVYYCARDDVVRYFDWPLDYWGQGTLVTVSS VL: AIQMTQSPSSLSASVGDRVTITCRASQGIRNDLGWYQQKPGKAPKVLIYAASSLQSGVPSRFSGSGSGTDFTLTISSLQPEDFATYYCLQDYNYPWTFGQGTKVEIK
Units Of Measure: nM
EC50: 5
--
Binder: anti-BTLA antibody 16-I20A (antibody, V domains shown, also called 16420A) VH: QVQLQESGPGLVKPSETLSLTCTVSGGSISYYYWSWIRQPPGTGLEWIGYIYYSGSTKYNPSLKRRVTISVDTSKNQFSLKLSSVTAADTAVYYCARIRGDSYGWDFDYWGQGTLVTVSS VL: EIVMTQSPATLSLSPGERATLSCRASQSISNNYLFWYQQKPGQAPRLLIYGASTRATGIPARFSGSGSGTDFTLTISSLQPEDFAVYYCQQDYNFPLTFGGGTKVEIK
Units Of Measure: nM
EC50: 6.9
--
Binder: anti-BTLA antibody 16-H16A (antibody, V domains shown) VH: QLQLQESGPGLVKPSETLSLTCTVSGDSISSSGYYWGWIRQPPGKGLEWIGSIYYSGSTHYNPSLKSRVTISVDSSKSQFSLKLSSVTAADTAVYCCARHKVDSSGWPLDYWGQGTLVTVSS VL: EIVMTQSPATLSLSPGERATLSCRASQSISSSCLSWYQQKPGQAPRLLIYDTSTRATGIPARFSGSGSGTDFTLTISSLQPEDFAVYYCQQDYNLPLTFGGGTKVEIK
Units Of Measure: nM
EC50: 4.4

The measured values listed here are drawn from patent US20200325230A1.
